Molecular target: CDK1/cyclinB (h) (Homo sapiens, UniProt P06493)
Sequence (P06493 whole entry): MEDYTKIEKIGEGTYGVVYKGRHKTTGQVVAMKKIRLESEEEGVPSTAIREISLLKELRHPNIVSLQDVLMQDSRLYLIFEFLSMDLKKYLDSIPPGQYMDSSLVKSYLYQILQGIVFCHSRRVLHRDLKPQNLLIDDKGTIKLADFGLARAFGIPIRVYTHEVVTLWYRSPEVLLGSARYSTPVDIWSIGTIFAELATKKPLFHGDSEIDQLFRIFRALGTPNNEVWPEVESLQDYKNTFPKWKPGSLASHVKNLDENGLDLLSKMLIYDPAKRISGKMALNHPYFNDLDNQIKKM
Sequence (P14635 whole entry partner): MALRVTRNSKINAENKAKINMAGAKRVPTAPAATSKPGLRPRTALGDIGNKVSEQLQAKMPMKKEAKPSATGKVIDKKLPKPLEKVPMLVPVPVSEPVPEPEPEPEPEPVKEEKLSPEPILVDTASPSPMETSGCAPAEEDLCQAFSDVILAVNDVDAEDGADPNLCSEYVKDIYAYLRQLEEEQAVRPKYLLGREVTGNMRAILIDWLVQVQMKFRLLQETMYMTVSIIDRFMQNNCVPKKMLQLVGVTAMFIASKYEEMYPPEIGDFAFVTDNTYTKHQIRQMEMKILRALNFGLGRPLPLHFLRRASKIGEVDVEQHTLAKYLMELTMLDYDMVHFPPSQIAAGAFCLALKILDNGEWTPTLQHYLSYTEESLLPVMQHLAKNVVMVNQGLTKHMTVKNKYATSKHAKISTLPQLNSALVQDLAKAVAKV
Test: Kinase profiling C3.2 CDK1/cyclinB human
Format: biochemical
Conditions: test concentration of 10^−6 M
Readings of C3.2 score for the listed molecules

Worked cases, C3.2 score given:
- molecule: "O=C1NCCCc2cc(ccn2)-c2ncnc(n2)Nc2cc(Cl)cc(c2)CN2CCCC1C2 (centres unmarked)"
  C3.2 score: "2 (Score 2 = 30-60% inhibition)"
- molecule: "CN1CC(=O)NCCCc2cc(ccn2)-c2ncnc(n2)Nc2cc(Cl)cc(c2)C1"
  C3.2 score: "4 (Score 4 = >80% inhibition)"
- molecule: "O=C1NCCCc2cc(ccn2)-c2ncnc(n2)Nc2cccc(c2)CN2C[C@H](O)C[C@@H]12"
  C3.2 score: "2 (Score 2 = 30-60% inhibition)"

Qu. Enter recorded C3.2 score with CDK1/cyclinB (h) (Homo sapiens, UniProt P06493) for "O=C1NCCCNc2cc(ccn2)-c2ncnc(n2)Nc2cccc(c2)CN2CCC[C@@H]12" here.
Ans. 4 (Score 4 = >80% inhibition)

Qu. Enter recorded C3.2 score with CDK1/cyclinB (h) (Homo sapiens, UniProt P06493) for "O=C1CC2CCN(CCCc3cc(ccn3)-c3ncnc(n3)Nc3cccc(c3)CCN1)CC2" here.
Ans. 2 (Score 2 = 30-60% inhibition)

###

Target: CDK2/cyclinA (h) (Homo sapiens, UniProt P24941)
Experiment: Kinase profiling C3.3 CDK2/cyclinA human
Format: biochemical
Details: test concentration of 10^−6 M
readoutName: C3.3 score

Worked cases, C3.3 score given:
- compound: "CN1CCC(=O)NCCNc2cc(ccn2)-c2ncnc(n2)Nc2cccc(c2)C1 [Compound 17]"
  C3.3 score: "4 (Score 4 = >80% inhibition)"
- compound: "CN1CC(=O)NCCCc2cc(ccn2)-c2ncnc(n2)Nc2cccc(c2)C1 [Compound 10]"
  C3.3 score: "4 (Score 4 = >80% inhibition)"
- compound: "CCN1CC(=O)NCCCc2cc(ccn2)-c2ncnc(n2)Nc2cc(Cl)cc(c2)C1"
  C3.3 score: "4 (Score 4 = >80% inhibition)"
- compound: "O=C1CCN2CCN(CC2)Cc2cccc(c2)Nc2ncnc(n2)-c2ccnc(c2)NCCN1"
  C3.3 score: "4 (Score 4 = >80% inhibition)"
- compound: "O=C1NCCCc2cc(ccn2)-c2ncnc(n2)Nc2cc(Cl)cc(c2)CN2CCCC1C2 (stereo not shown)"
  C3.3 score: "3 (Score 3 = 60-80% inhibition)"
- compound: "CCN1CCCc2cc(ccn2)-c2ncnc(n2)Nc2cccc(c2)CCNC(=O)C1"
  C3.3 score: "4 (Score 4 = >80% inhibition)"
- compound: "O=C1NCCCc2cc(ccn2)-c2ncnc(n2)Nc2cccc(c2)CN2C[C@H](O)C[C@@H]12"
  C3.3 score: "4 (Score 4 = >80% inhibition)"
- compound: "CN1CC(=O)NC/C(Cl)=C/c2cc(ccn2)-c2ncnc(n2)Nc2cccc(c2)C1"
  C3.3 score: "4 (Score 4 = >80% inhibition)"

Qu. Tell me its C3.3 score given "O=C1NCCCNc2cc(ccn2)-c2ncnc(n2)Nc2cccc(c2)CN2CCC[C@@H]12" as the entry.
Ans. 4 (Score 4 = >80% inhibition)

Qu. Tell me its C3.3 score given "O=C1CN2CCN(CC2)Cc2cccc(c2)Nc2ncnc(n2)-c2ccc(F)c(c2)CCCN1" as the entry.
Ans. 3 (Score 3 = 60-80% inhibition)
